# System: MCF7 breast
# measurement_notes: NCI-60 one-dose screen, 48 h
# protocol_conditions: 10 µM
The panel holds about 83,000 compounds, 20% with a hit somewhere; the sample as a whole holds those more often. Activity calls are given as the source filed them. The calls were made as follows: active = growth percent below 10; inactive = the rest.
Pick one: YES (active), NO (inactive)

Examples with answers:
- compound: "CC[N+](CC)=c1ccc2nc3c(cc(NCc4ccccc4)c4ccccc43)oc-2c1"
  target_entity: "MCF7 breast"
  label_value: "YES"
- compound: "Nc1cc(-c2ccc(Cl)cc2)nn1-c1nc2ccccc2nc1Cc1ccccc1"
  target_entity: "MCF7 breast"
  label_value: "NO"
- compound: "O=C(NCCNC(=O)c1ccc(F)cc1)Nc1ccc(-n2cc(-c3ccncc3)c(-c3ccc(Cl)c(O)c3)n2)cc1"
  target_entity: "MCF7 breast"
  label_value: "YES"
- compound: "CN1CCN(c2cc3c(cc2F)c(=O)c(C(=O)O)cn3-c2ccc(F)cc2)CC1"
  target_entity: "MCF7 breast"
  label_value: "NO"
- compound: "Nc1cc(-c2ccncc2)c[nH]c1=O"
  target_entity: "MCF7 breast"
  label_value: "NO"
- compound: "O=C(CCCCC(=O)Oc1c(Cl)cc(Cl)cc1[N+](=O)[O-])Oc1c(Cl)cc(Cl)cc1[N+](=O)[O-]"
  target_entity: "MCF7 breast"
  label_value: "NO"
- compound: "COc1cc(-c2nn(-c3cccc(NC(=O)CCNc4ccc(N5CCOCC5)cc4)c3)cc2-c2ccncc2)ccc1Cl"
  target_entity: "MCF7 breast"
  label_value: "YES"
- compound: "Cc1ccc(NCCNCC(C)(C)O)c2c(=O)c3ccc(Cl)cc3sc12"
  target_entity: "MCF7 breast"
  label_value: "YES"

For this compound, state the assay outcome: "COc1ccc(C(=O)c2cc3c(OC)c(OC)c(OC)cc3[nH]2)cc1"
NO

// repeat for "Cc1cc(O)ccc1C1=NN(c2ccc(S(C)(=O)=O)cc2)C(=O)CC1" and report
NO
